Value source: PubChem BioAssay (NCI)

Listed next: entries and their corresponding growth.
system: BT-549 breast; assay: NCI-60 one-dose screen, 48 h (100 = growth as untreated, 0 = no growth, -100 = all killed); conditions: 10 µM unless noted
About 83,000 compounds went through this panel and 20% of them were active in at least one assay; those are over-represented in the sample as a whole.
State just the number; it will be interpreted in %.

Examples with their reported growth follow.
May I ask what growth has been recorded for COc1ccc2nc3ccccc3c(NCc3ccc(Cl)cc3)c2c1 ?
50.2

GET /values?readout=growth&item= C=C[C@H]1CCC/C=C/[C@@H]2C[C@H](O)C[C@H]2[C@H](O)/C=C/C(=O)O1
0.705

Query (compound): O=[N+]([O-])c1ccc(N/N=C\c2ccc(O)cc2O)nc1 ; field requested: growth
38

Please look up its growth: C=CCOC(=O)C1=C(C)NC2=C(C(=O)CCC2)C1c1ccc(F)cc1 (stereo not drawn)
99.4

Name the recorded growth for COc1ccc2nc3cc(Cl)ccc3c(NC(=O)CSc3ccc(Cl)cc3)c2c1 .
-98.7

***
Consider the compound CCNC(=O)c1ccc2c(c1)nc(-c1ccc(Cl)cc1)n2-c1cc(C(C)(C)C)[nH]n1 and give its measured growth.
41.8

Query: growth; subject: CS(=O)(=O)c1ccc(C(=O)N/N=C/c2ccccc2O)cc1
53

Can you share its growth? I mean this compound: CO[C@H](C(=O)[C@@H](O)[C@@H](C)O)[C@@H]1Cc2cc3cc(O[C@H]4C[C@@H](O[C@H]5C[C@@H](O)[C@H](O)C(C)O5)[C@H](O)C(C)O4)c(C)c(O)c3c(O)c2C(=O)[C@H]1O[C@H]1C[C@@H](O[C@H]2C[C@@H](O[C@H]3C[C@](C)(O)C(=O)C(C)O3)[C@@H](O)C(C)O2)[C@H](O)C(C)O1 (stereo partly drawn)
-24.5

---

system: 786-0 renal; test: NCI-60 one-dose screen, 48 h (100 = growth as untreated, 0 = no growth, -100 = all killed); details: 10 µM unless noted
Compounds without any hit were thinned out: in the full panel of roughly 83,000, 20% have a hit.
property label: growth (%)
# unit: % | format: bare number

Which measured growth belongs to O=C(CC(=O)c1cccc(Cl)c1)c1cccc(Cl)c1 , tested on 786-0 renal?
43

Write down the reported growth of CC(C)(C)[Si](C)(C)OC1[C@@H](CNC(N)=O)O[C@@H](n2cnc3c(NC(=O)Nc4ccccc4)ncnc32)[C@H]1O[Si](C)(C)C(C)(C)C (stereo partly drawn) , test system: 786-0 renal.
58.8

Proceed to the following item.
// map O=C(Nc1cccc(C2=NCCN2)c1)c1ccc(N=Nc2ccc(C(=O)Nc3cccc(C4=NCCN4)c3)cc2)cc1 to recorded growth (system: 786-0 renal)
69.2

---

test system: SK-MEL-28 melanoma; test: NCI-60 one-dose screen, 48 h (100 = growth as untreated, 0 = no growth, -100 = all killed); settings: 10 µM unless noted
The panel holds about 83,000 compounds, 20% with a hit somewhere; the sample as a whole holds those more often.
This section presents compounds with their documented growth values.
Response body: numeric value in %, unit text excluded.

Here is how some compounds turned out for growth.
# input compound: CN1C2CCC1/C(=C\c1ccc(Cl)cc1)C(=O)/C2=C/c1ccc(Cl)cc1 ; wanted: its growth
91.6

What value of measured growth is listed for NC(=O)N/N=C\c1ccc([N+](=O)[O-])o1 ?
106

Next, consider the following compound.
Item COc1ccc2nc(C)cc(Sc3nc4ccccc4s3)c2c1 has what recorded growth?
62.7
